Parameter 'readout' = Ki; parameter 'system' = 5-hydroxytryptamine receptor 2A (Homo sapiens).
Sequence (P28223 whole entry): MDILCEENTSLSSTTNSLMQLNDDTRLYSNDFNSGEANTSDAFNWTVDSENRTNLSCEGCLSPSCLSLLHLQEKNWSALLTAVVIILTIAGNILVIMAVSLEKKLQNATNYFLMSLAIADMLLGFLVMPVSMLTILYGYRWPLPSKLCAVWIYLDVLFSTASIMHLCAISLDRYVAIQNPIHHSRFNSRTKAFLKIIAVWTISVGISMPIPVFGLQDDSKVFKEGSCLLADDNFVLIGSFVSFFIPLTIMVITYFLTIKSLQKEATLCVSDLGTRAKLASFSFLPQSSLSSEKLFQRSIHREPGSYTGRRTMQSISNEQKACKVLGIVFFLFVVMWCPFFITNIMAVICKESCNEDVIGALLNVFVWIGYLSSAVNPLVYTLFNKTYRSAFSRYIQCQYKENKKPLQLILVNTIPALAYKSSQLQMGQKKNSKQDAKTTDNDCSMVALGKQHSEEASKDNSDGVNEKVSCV
All answers are understood in nM, so give the number only.

# count of solved cases: 6
# chem_smiles, experimental_value
records = [
    ("CCN(CC)CCc1ccc(Cl)c(-c2ccccc2OC)c1", 680),
    ("CNCc1ccc(Cl)c(-c2ccccc2OC)c1", 380),
    ("CNCCc1ccc(Cl)c(-c2ccccc2OC)c1", 170),
    ("CCNCCc1ccc(Cl)c(-c2ccccc2OC)c1.Cl", 520),
    ("CCNCc1ccc(Cl)c(-c2ccccc2OC)c1", 910),
    ("CCCN(CCC)CCc1ccc(Cl)c(-c2ccccc2OC)c1", 1200),
]

Note to self: Ki of CCCNCCc1ccc(Cl)c(-c2ccccc2OC)c1.Cl with 5-hydroxytryptamine receptor 2A (Homo sapiens) was 600

Note to self: Ki of CCCCNCCc1ccc(Cl)c(-c2ccccc2OC)c1.Cl with 5-hydroxytryptamine receptor 2A (Homo sapiens) was 570

Note to self: Ki of COc1ccccc1-c1cc(CCN(C)C)ccc1Cl with 5-hydroxytryptamine receptor 2A (Homo sapiens) was 250

These entries and their values trace back to ChEMBL document CHEMBL5038590.
